STUDY TARGET: BACE1 enzyme (soluble, truncated BACE enzyme, BACE1deltaTM96His) (Homo sapiens, UniProt P56817)
Construct: soluble, truncated BACE enzyme (BACE1deltaTM96His); His; made in house
Sequence (P56817 46-457): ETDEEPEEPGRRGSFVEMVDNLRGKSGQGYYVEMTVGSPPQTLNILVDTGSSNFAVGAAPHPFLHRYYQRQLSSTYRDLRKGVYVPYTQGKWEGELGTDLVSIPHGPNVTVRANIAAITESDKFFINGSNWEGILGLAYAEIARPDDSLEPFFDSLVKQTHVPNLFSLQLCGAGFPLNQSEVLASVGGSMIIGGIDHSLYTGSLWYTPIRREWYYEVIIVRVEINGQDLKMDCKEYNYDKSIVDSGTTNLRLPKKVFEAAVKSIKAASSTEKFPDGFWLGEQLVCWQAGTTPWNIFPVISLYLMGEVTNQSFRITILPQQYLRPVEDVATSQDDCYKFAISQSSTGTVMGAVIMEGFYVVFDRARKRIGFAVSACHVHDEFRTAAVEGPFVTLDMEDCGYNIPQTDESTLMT
PROCEDURE TEXT: BACE1 Fluorescent Polarization (FP) Assay
Assay type: biochemical
COND: 8-point curve; geometric mean of 2-4 IC50 determinations unless footnoted (^2: 5-6 determinations; ^4: single determination); read-out: BACE activity, 8-point curve, IC50
Where a name gives a salt, the structure may show the parent alone.
Quick reference for log10 IC50 among some molecules
MEASUREMENT TYPE: log10 IC50 (log10 of the value in nM)

>>> reading("CC(C)Oc1cccc(CN2CC[C@]3(C=CS(=O)(=O)N3c3ccc(F)c(F)c3)C[C@@H]2C)c1 [Example 68, hydrochloride salt]")
3.25
>>> reading("Cc1ccccc1-c1cc(CN2CC[C@]3(C=CS(=O)(=O)N3c3cccc(F)c3)C[C@@H]2C)ccc1O [Example 25, hydrochloride salt]")
1.16
>>> reading("COc1ccc2[nH]c(CN3CC[C@]4(C=CS(=O)(=O)N4c4cccc(F)c4)C[C@@H]3C)cc2c1 [Example 42]")
2.07
>>> reading("Cc1ccncc1-c1ncsc1CN1CC[C@]2(C=CS(=O)(=O)N2c2cccc(F)c2)C[C@@H]1C [Example 50, hydrochloride salt]")
3.86
>>> reading("C[C@H]1C[C@]2(CCN1Cc1ccc(O)c(C3CCCO3)c1)CCS(=O)(=O)N2c1cccc(F)c1 (single isomer, unassigned) [Example 46]")
2.94
>>> reading("CCOc1cc(CN2CC[C@]3(C=CS(=O)(=O)N3c3cccc(F)c3)C[C@@H]2C)ccc1O [Example 27]")
2.06
>>> reading("C[C@H]1C[C@@]2(C=CS(=O)(=O)N2c2cccc(F)c2)CCN1Cc1ccc(O)c(C2CCCO2)c1 (mixture of isomers) [Example 11]")
1.73

Taken from patent US20130150376A1.
